These data points were gathered from patent US20240010684A1.

- SYSTEM TESTED: human MASP2 (Homo sapiens (Human))
- Sequence (O00187 other isoform, or with tags, fused parts or gaps): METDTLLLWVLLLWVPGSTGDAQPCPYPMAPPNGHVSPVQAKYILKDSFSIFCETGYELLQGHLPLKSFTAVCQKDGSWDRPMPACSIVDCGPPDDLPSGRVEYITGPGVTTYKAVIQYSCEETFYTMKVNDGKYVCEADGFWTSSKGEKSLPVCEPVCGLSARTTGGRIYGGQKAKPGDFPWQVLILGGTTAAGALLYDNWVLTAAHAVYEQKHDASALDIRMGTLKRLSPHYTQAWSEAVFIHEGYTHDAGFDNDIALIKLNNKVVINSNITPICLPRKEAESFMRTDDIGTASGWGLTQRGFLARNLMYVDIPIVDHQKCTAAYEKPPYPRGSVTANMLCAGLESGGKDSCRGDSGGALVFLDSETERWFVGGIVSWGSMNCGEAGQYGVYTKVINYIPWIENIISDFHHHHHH
- TEST: Biochemical human MASP2 assay (FRET substrate)
- CONDITIONS USED: Average IC50; recombinant human MASP2; read-out: human MASP2 IC50
Where a SMILES comes first, the peptide text is derived from it. Bridges are numbered along the chain shown (N, C = ends). [ ]: non-standard residue; d: D form. Oic = O=C(O)[C@@H]1C[C@@H]2CCCC[C@@H]2N1; Pen = CC(C)(S)[C@H](N)C(=O)O; Dap = NC[C@H](N)C(=O)O; Ahx = NCCCCCC(=O)O
The entries below are paired with their reported IC50.
Give just the numeric value; nM need not be written.

- MOLECULE: "CC[C@H](C)[C@@H]1NC(=O)[C@H](C)NC(=O)CCCCCNC(=O)[C@@H]2CCCN2C(=O)[C@H]([C@@H](C)CC)NC(=O)[C@@H]2CSSC[C@H](NC1=O)C(=O)N[C@@H](CO)C(=O)N[C@@H](CCCNC(=N)N)C(=O)N[C@@H](CO)C(=O)N[C@@H](CC(C)C)C(=O)N1CCC[C@H]1C(=O)N1[C@@H](C[C@@H]3CCCC[C@@H]31)C(=O)N[C@@H]([C@@H](C)CC)C(=O)N2 [Example 25] (cyclo(AICSRSLP[Oic]ICIP[Ahx]); disulfide 3-11)"
  IC50 / nM: 610

Prompt: What does the data say about its IC50? Entry: CC[C@H](C)[C@@H]1NC(=O)[C@H](CN)NC(=O)[C@@H]2CCCN2C(=O)[C@H]([C@@H](C)CC)NC(=O)[C@H]2NC(=O)[C@H]([C@@H](C)CC)NC(=O)[C@@H]3C[C@@H]4CCCC[C@@H]4N3C(=O)[C@H]3CCCN3C(=O)[C@H](CC(C)C)NC(=O)[C@H](CO)NC(=O)[C@H](CCCNC(=N)N)NC(=O)[C@H](CO)NC(=O)[C@H](CSSC2(C)C)NC1=O [Example 87] (cyclo(CSRSL[dP][Oic]I[Pen]IP[Dap]I); disulfide 1-9)
Response: 700

---

Listed molecules paired with reported IC50
- SYSTEM TESTED: human MASP1 (Homo sapiens (Human))
- Sequence (P48740 other isoform, or with tags, fused parts or gaps): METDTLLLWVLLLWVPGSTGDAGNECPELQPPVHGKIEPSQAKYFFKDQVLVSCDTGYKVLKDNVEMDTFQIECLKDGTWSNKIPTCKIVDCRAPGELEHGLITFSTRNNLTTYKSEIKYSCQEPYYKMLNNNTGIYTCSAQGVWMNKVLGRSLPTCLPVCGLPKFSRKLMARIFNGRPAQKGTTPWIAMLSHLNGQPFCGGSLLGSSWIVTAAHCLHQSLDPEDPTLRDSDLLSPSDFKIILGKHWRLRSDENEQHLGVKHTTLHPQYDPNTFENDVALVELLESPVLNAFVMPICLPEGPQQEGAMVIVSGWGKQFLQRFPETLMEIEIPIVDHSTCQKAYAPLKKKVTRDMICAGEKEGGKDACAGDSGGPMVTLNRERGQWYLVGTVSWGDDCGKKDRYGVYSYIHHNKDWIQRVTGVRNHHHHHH
- TEST: Biochemical human MASP1 assay (FRET substrate)
- CONDITIONS USED: Average IC50; recombinant human MASP1; read-out: human MASP1 IC50
- Excerpt: A truncated cDNA sequence of human MASP1 encoding the fragment corresponding to the amino acids 297-699 with a C-terminal His Tag and N-terminal Ig-kappa secretion signal (SEQ ID No: 2) was subcloned into the mammalian expression vector pcDNA3.1 (Invitrogen). The MASP1 or MASP2 expression vectors were transfected into the HEK293 (ATCC No. CRL-1573) cell line using Lipofectamine LTX® Reagent (Thermo-Fischer), as described by the manufacturer. […]
*1 amine or outer side, *2 acyl side, *3 side chain or, on linkers, in order; H or OH if unused. Where a SMILES comes first, the peptide text is derived from it. Bridges are numbered along the chain shown (N, C = ends). [ ]: non-standard residue; d: D form. X5 = NCCC[C@H](N[*:1])C(=O)NC(=O)[*:2]; Arg(Me) = CNC(=N)NCCC[C@H](N)C(=O)O; tBuAla = CC(C)(C)C[C@H](N)C(=O)O; Pen = CC(C)(S)[C@H](N)C(=O)O; NMeC = CN[C@@H](CS)C(=O)O; Dab = NCC[C@H](N)C(=O)O; Dap = NC[C@H](N)C(=O)O; Ahx = NCCCCCC(=O)O
Form entry: value (nM) — number only.

- MOLECULE: "CC[C@H](C)[C@@H]1NC(=O)[C@@H]2CSSC[C@H](NC(=O)[C@H](Cc3ccc(O)cc3)NC(=O)CNC(=O)[C@H](CC(=O)O)NC(=O)[C@@H]3CCCN3C1=O)C(=O)N[C@@H](CO)C(=O)N[C@@H](CCCNC(=N)N)C(=O)N[C@@H](CO)C(=O)N[C@@H](Cc1ccc(O)cc1)C(=O)N1CCC[C@H]1C(=O)N1CCC[C@H]1C(=O)N[C@@H](C(C)C)C(=O)N2 [Ref. No 8, reference compound] (cyclo(CIPDGYCSRSYPPV); disulfide 1-7)"
  SYSTEM TESTED: "human MASP1 (Homo sapiens (Human))"
  UNIT SYMBOL: "nM"
  REPORTED RESULT: 8130

Prompt: Any idea what its IC50 is? The molecule is CC[C@H](C)[C@@H]1NC(=O)[C@H](C)NC(=O)CCCCCNC(=O)[C@H](CC(=O)O)NC(=O)[C@@H]2CCCN2C(=O)[C@H]([C@@H](C)CC)NC(=O)[C@H]2NC(=O)[C@H]([C@@H](C)CC)NC(=O)[C@@H]3CCCN3C(=O)[C@@H]3CCCN3C(=O)[C@H](CC(C)(C)C)NC(=O)[C@H](CO)NC(=O)[C@H](CCCNC(=N)N)NC(=O)[C@H](CO)NC(=O)[C@H](CSSC2(C)C)NC1=O [Example 27] (cyclo(AICSRS[tBuAla]PPI[Pen]IPD[Ahx]); disulfide 3-11)
Response: 9.1

Prompt: Form field: reported IC50 of CC[C@H](C)[C@@H]1NC(=O)[C@H](CCN)NC(=O)[C@H](CN)NC(=O)[C@H]([C@@H](C)CC)NC(=O)[C@H]2NC(=O)[C@H]([C@@H](C)CC)NC(=O)[C@@H]3CCCN3C(=O)[C@@H]3CCCN3C(=O)[C@H](CC(C)(C)C)NC(=O)[C@H](CO)NC(=O)[C@H](CCCNC(=N)N)NC(=O)[C@H](CO)NC(=O)[C@H](CSSC2(C)C)NC1=O [Example 73] (cyclo(CSRS[tBuAla]PPI[Pen]I[Dap][Dab]I); disulfide 1-9)
Response: 42

Prompt: Reported IC50 for CC[C@H](C)[C@@H]1NC(=O)NC(=O)[C@H](CCCN)NC(=O)[C@@H]2CCCN2C(=O)[C@H]([C@@H](C)CC)NC(=O)[C@H]2NC(=O)[C@H]([C@@H](C)CC)NC(=O)[C@@H]3CCCN3C(=O)[C@@H]3CCCN3C(=O)[C@H](CC(C)(C)C)NC(=O)[C@H](CO)NC(=O)[C@H](CCCNC(=N)NC)NC(=O)[C@H](CO)NC(=O)[C@H](CSSC2(C)C)NC1=O [Example 96] (cyclo([Arg(Me)]S[tBuAla]PPI[Pen]IP[X5]ICS); disulfide 7-12) : what is it?
Response: 23

Prompt: Requested read-out: IC50. Entry: CC[C@H](C)[C@@H]1NC(=O)[C@@H]2CCCN2C(=O)[C@@H]2CCCN2C(=O)[C@H](CC(C)(C)C)NC(=O)[C@H](CO)NC(=O)[C@H](CCCNC(=N)N)NC(=O)[C@H](CO)NC(=O)[C@@H]2CSSC(C)(C)[C@H](NC1=O)C(=O)N[C@@H]([C@@H](C)CC)C(=O)N1CCC[C@H]1C(=O)N1CCC[C@H]1C(=O)N[C@@H]([C@@H](C)CC)C(=O)N2 [Example 58] (cyclo(CSRS[tBuAla]PPI[Pen]IPPI); disulfide 1-9)
Response: 9

Prompt: # input molecule: CC[C@H](C)[C@@H]1NC(=O)CNC(=O)CCCCCNC(=O)[C@@H](CC(=O)O)NC(=O)[C@@H]2CCCN2C(=O)[C@H]([C@@H](C)CC)NC(=O)[C@@H]2CSSC[C@H](NC1=O)C(=O)N[C@@H](CO)C(=O)N[C@@H](CCCNC(=N)N)C(=O)N[C@@H](CO)C(=O)N[C@@H](CC(C)C)C(=O)N1CCC[C@H]1C(=O)N1CCC[C@H]1C(=O)N[C@@H]([C@@H](C)CC)C(=O)N2 [Example 16] (cyclo([Ahx]GICSRSLPPICIP[dD]); disulfide 4-12) ; wanted: its IC50
Response: 150

Prompt: Endpoint output: IC50 of CC[C@H](C)[C@@H]1NC(=O)CCCCCNC(=O)[C@@H]2CCCN2C(=O)[C@H]([C@@H](C)CC)NC(=O)[C@H]2NC(=O)[C@H]([C@@H](C)CC)NC(=O)[C@@H]3CCCN3C(=O)[C@@H]3CCCN3C(=O)[C@H](CC(C)(C)C)NC(=O)[C@H](CO)NC(=O)[C@H](CCCNC(=N)N)NC(=O)[C@H](CO)NC(=O)[C@H](CSSC2(C)C)NC1=O [Example 51] (cyclo([Ahx]ICSRS[tBuAla]PPI[Pen]IP); disulfide 3-11) . Value?
Response: 6.3

Prompt: Name the reported IC50 value associated with the molecule CC[C@H](C)[C@@H]1NC(=O)[C@@H]2CCCN2C(=O)[C@@H]2CCCN2C(=O)[C@H](CC(C)(C)C)NC(=O)[C@H](CO)NC(=O)[C@H](CCCNC(=N)N)NC(=O)[C@H](CO)NC(=O)[C@@H]2CSSC(C)(C)[C@H](NC1=O)C(=O)N[C@@H]([C@@H](C)CC)C(=O)N1CCC[C@H]1C(=O)NCCCCCC(=O)NC[C@H]1CC[C@@H](CC1)C(=O)N[C@@H]([C@@H](C)CC)C(=O)N2 [Example 59]
Response: 11

Prompt: Data request, read-out IC50, for CC[C@H](C)[C@@H]1NC(=O)CNC(=O)CCCCCNC(=O)C[C@@H](C(N)=O)NC(=O)[C@@H]2CCCN2C(=O)[C@H]([C@@H](C)CC)NC(=O)[C@@H]2CSSC[C@H](NC1=O)C(=O)N[C@@H](CO)C(=O)N[C@@H](CCCNC(=N)N)C(=O)N[C@@H](CO)C(=O)N[C@@H](CC(C)(C)C)C(=O)N1CCC[C@H]1C(=O)N1CCC[C@H]1C(=O)N[C@@H]([C@@H](C)CC)C(=O)N2C [Example 40] ([Ahx]GICSRS[tBuAla]PPI[NMeC]IPD-NH2; disulfide 4-12; lactam N-15)
Response: 7.1
